Numbers sourced from patent US20230357447A1.

Reported CD28 scFv signal in presence of CD28 values follow for various binders
Target: T1, anti-CD28 scFv (VH-linker 1-VL) (biotinylated (site not stated))
T1 construct: Captured as biotinylated scFv on neutravidin coated plates in the phage ELISA
T1 sequence (scFv, as listed by the source): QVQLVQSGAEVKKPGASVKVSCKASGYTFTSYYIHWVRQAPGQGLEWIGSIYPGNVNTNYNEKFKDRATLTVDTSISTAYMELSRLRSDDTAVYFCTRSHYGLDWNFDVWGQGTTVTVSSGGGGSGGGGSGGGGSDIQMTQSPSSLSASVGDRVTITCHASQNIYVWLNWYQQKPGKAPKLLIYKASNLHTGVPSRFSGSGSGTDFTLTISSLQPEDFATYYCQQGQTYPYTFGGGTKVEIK
Assay: phage ELISA; scFv wells pre-incubated with soluble CD28 (competitor);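 further: crude clonal phage supernatants added to wells pretreated with soluble CD28 in blocking buffer, bound phage read via HRP-linked anti-M13 antibody, reference wells got blocking buffer only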
Write no unit; give the number alone.

Examples from the recorded data:
>>> measured("MDWCPRSLWHVCFN (on phage (pIII fusion)) [Phage-258 clonal phage peptide]")
0.238
>>> measured("MDWCPRSLWNYCFA (on phage (pIII fusion)) [Phage-316 clonal phage peptide]")
0.198
>>> measured("MDWCPRDLWNLCFF (on phage (pIII fusion)) [Phage-236 clonal phage peptide]")
0.436
>>> measured("MDWCPRHLWFECFF (on phage (pIII fusion)) [Phage-300 clonal phage peptide]")
0.479

The measured CD28 scFv signal in presence of CD28 associated with MDWCPRDRWIDCFN (on phage (pIII fusion)) [Phage-226 clonal phage peptide] reads 0.131

So, MDWCPRHLWFECFN (on phage (pIII fusion)) [Phage-293 clonal phage peptide] ? Its CD28 scFv signal in presence of CD28 was 0.171

Lab note: MDWCPRDLWDECFN (on phage (pIII fusion)) [Phage-310 clonal phage peptide] gave CD28 scFv signal in presence of CD28 of 0.248

Form: binder = MDWCPRSIWYLCFN (on phage (pIII fusion)) [Phage-278 clonal phage peptide] ; CD28 scFv signal in presence of CD28 = 1.34
